- assayed_system: hYAK3 (Homo sapiens, UniProt O43781)
- Construct: GST (N); His6 (C)
- Sequence (O43781 142-526): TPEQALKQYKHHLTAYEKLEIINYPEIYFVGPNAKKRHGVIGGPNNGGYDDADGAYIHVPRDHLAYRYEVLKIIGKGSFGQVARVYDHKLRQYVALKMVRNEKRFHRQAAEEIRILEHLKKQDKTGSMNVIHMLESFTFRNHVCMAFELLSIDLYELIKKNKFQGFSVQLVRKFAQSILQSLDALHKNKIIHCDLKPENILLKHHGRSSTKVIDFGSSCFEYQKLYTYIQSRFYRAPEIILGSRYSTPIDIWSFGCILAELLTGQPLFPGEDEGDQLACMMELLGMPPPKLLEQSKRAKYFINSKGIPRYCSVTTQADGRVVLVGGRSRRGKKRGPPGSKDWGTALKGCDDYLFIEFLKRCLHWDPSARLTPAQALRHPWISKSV
- procedure_summary: YAK3 Scintillation Proximity Assay using Ser164 of myelin basic protein as the phosphoacceptor (kinase assay of purified hYAK3)
- assay_context: purified GST-hYak3-His6; 1 μM ATP; 4 μM Ser164 peptide; 2 hours at room temperature
measured_attribute: pIC50
By convention, pIC50 is the negative base-10 log of a molar concentration.

**Query** Input O=C1N=C(Nc2c(Cl)cccc2Cl)S/C1=C\c1ccc2ncc(N3CCOCC3)nc2c1 [Example 1] , output reported pIC50.
**Result** 8.90
